The origin of these recorded values is paper PMC5540273.

# System: PIM1
# condition: concentration: 1 μM, replicates: in singlicate; n = 1;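 further: KINOMEscan kinase panel screen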
test-readout: %Inh (%)
One number for each entry, in %.

# example entries with known answers
INSERT INTO results (compound, reported_measurement) VALUES
  ('CN1C(=O)C(Nc2cc(Cl)c(O)c(Cl)c2)=C(c2ccc(Cl)cc2)C1=O [SB-404321]', 0),
  ('O=C(Nc1n[nH]c2nc(-c3ccccc3)c(Br)cc12)C1CC1 [SB-708998]', 4),
  ('CCC(=O)c1c(-c2ccccc2)c2cc(Cl)ccc2c(=O)n1Cc1cc(C(=O)NC2CC2)n(C)n1', 0),
  ('Nc1ncnc2c1ncn2-c1cccc(F)c1 [SKF-97560]', 1),
  ('CCC(=O)c1c(-c2ccccc2)c2cc(Cl)ccc2c(=O)n1Cc1cc(S(C)(=O)=O)n(CC(N)=O)n1', 18),
  ('CCC(=O)c1c(-c2ccccc2)c2cc(Cl)ccc2c(=O)n1Cc1ccc(C(=O)O)cc1', 0);

For every item in the list below, what is its measured %Inh?
1. COc1cccc(C2=C(N(C)c3ccccc3)C(=O)NC2=O)c1 [SB-334865]
2. Nc1ncnc2c1ncn2-c1cccc2ccccc12 [SKF-97184]
3. CCS(=O)c1ccc(-c2coc3ccc(-c4nnc(C)o4)cc23)cc1 (stereo not shown)
4. COc1cc(Nc2nccc(N3CCC(NC(=O)C(C)c4ccc(Cl)cc4)C3)n2)cc(OC)c1OC (stereo not shown) [GSK1379757]
5. Cc1cc(Nc2nc(-c3cccc(C)n3)nc3ccccc23)ccn1 [GW872411]
6. CCS(=O)(=O)c1ccc(OC)c(Nc2ncc(-c3ccc(F)cc3)o2)c1.Cl [GW591947]
7. COc1ccc(Nc2nccc(N3CCC(NS(=O)(=O)c4ccc(NC(C)=O)cc4)C3)n2)cc1 (stereo not shown) [GSK1379729]
8. O=C(Nc1n[nH]c2cc(-c3ccccc3F)ccc12)C1CC1 [SB-733371]

a:
1: 0; 2: 0; 3: 6; 4: 0; 5: 0; 6: 0; 7: 0; 8: 0

====

Hi there, I'd appreciate the recorded %Inh for every entry that follows.
# System: DCAMKL2
# Construct: gene DCLK2
# condition: concentration: 1 μM, replicates: in singlicate; n = 1
Give bare numbers, in %.

# example entries with known answers
INSERT INTO assay_data (compound, target_desc, unit_symbol, reported_measurement) VALUES
  ('COc1cc2ncn(-c3cc(OCCCc4ccccc4)c(C(N)=O)s3)c2cc1OC [GSK205189]', 'DCAMKL2', '%', 17),
  ('COc1ccc(-c2cc3c(C)nc(N)nc3n([C@H]3CC[C@H](OCCO)CC3)c2=O)cn1', 'DCAMKL2', '%', 0),
  ('COc1ccc(-c2cc3c(C)nc(N)nc3n([C@H]3CC[C@H](O)CC3)c2=O)cn1', 'DCAMKL2', '%', 0),
  ('Cc1cccc(-c2cc(-c3c[nH]nc3-c3ccccn3)ccn2)c1 [GW679395]', 'DCAMKL2', '%', 0),
  ('Cl.NS(=O)(=O)c1cccc(Nc2cc(-c3ccc(F)cc3)n[nH]2)c1 [GW824645]', 'DCAMKL2', '%', 44);

For every item in the list below, what is its measured %Inh?
1. COc1cc2ncn(-c3cc(OCc4ccncc4Br)c(C(N)=O)s3)c2cc1OC [GW854278]
2. Nc1nccc2scc(-c3ccc4c(c3)CCN4C(=O)Cc3ccccc3)c12 [GSK2576924]
3. OCCCNc1nccc(-c2c(-c3cccc(C(F)(F)F)c3)nn3cc(C(F)(F)F)ccc23)n1 [GW630813]
4. FC(F)(F)c1ccc(-c2ncn(CCCN3CCOCC3)c2-c2ccncc2)cc1 [SB-217780]

a:
[2, 0, 0, 35]

For every item in the list below, what is its measured %Inh?
1. CCC(=O)c1c(-c2ccccc2)c2cc(Cl)ccc2c(=O)n1Cc1cc(C(=O)NC2CC2)n(C)n1
2. COc1ccc(-n2cnc3c(N)ncnc32)cc1 [SKF-97236]
3. O=c1cc(N2CCOCC2)nc2n(Cc3ccc(F)c(Cl)c3)ccn12 [GSK2297099]
4. CCn1c(-c2ccoc2)nc2cnccc21 [SB-733887]
5. COc1ccc(-c2coc3ccc(-c4nnc(SCc5cccc(C#N)c5)o4)cc23)cc1
6. Nc1n[nH]c2ncc(-c3ccccc3)cc12 [SB-517081]
7. Nc1ncnc2c1ncn2-c1ccc(Cl)cc1 [AH2635]
8. CCS(=O)(=O)c1ccc(OC)c(Nc2ncc(-c3ccc(F)cc3)o2)c1.Cl [GW591947]

a:
0
0
0
0
0
13
0
0
